Molecular target: proMMP9(20-445;ΔFnII) (SEQ ID NO:6) (Homo sapiens, UniProt P14780, DEL216-390)
Construct: start methionine (N); made in house; host or cells: E. coli BL21(DE3) RIL
Sequence (P14780 with tags, fused parts or gaps DEL216-390): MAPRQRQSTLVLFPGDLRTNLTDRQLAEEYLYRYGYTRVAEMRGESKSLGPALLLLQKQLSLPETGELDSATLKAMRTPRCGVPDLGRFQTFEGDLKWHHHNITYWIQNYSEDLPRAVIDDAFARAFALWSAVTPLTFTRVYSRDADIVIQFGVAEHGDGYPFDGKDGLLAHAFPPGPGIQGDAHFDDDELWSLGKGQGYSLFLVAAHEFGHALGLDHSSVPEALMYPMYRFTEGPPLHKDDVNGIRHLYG
Test: ThermoFluor binding assay with proMMP9(20-445;ΔFnII)
outcome measure: pKd
Note: pKd values are expressed as the negative base-10 logarithm of concentration in M.

Here's what some known entries look like.
COc1c(F)cc(C(N)=O)cc1Nc1nc2c(ccc3c2ncn3C)s1 [Example 48]    5.72
COc1ccc(Br)cc1Nc1nc2c(ccc3c2ncn3C)s1 [Example 69]    6.37

Look up pKd of Cc1nc2ccc3sc(Nc4cc(C(N)=O)ccc4OC(C)C)nc3c2s1 [Example 13] and report it.
6.64

Look up pKd of Cn1cnc2c3nc(Nc4cc(S(N)(=O)=O)ccc4OC(F)(F)F)sc3ccc21 [Example 64] and report it.
6.01
